Below, each entry is listed alongside its reported remaining activity at 10 µM.
- assaySystem: CCR2 (Homo sapiens, UniProt P41597)
- Construct: Membranes were prepared from THP-1 cells; endogenous in cells; host or cells: THP-1 cells (membrane preparation)
- Sequence (P41597 1-360 isoform P41597-2): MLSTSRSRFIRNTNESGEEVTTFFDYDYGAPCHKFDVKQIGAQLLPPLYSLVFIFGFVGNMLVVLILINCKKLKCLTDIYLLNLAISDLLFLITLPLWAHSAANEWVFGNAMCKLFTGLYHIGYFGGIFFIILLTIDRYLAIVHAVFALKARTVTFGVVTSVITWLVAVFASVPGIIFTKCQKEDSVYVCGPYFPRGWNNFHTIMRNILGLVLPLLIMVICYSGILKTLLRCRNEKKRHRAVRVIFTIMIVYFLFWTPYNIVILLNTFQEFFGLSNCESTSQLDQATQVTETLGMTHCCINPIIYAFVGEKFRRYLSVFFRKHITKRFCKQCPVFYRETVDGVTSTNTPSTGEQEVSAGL
- methodDescription: CCR2 receptor membrane binding assay ([125I]MCP-1, THP-1 cell membranes, SPA beads)
- conditions: @ 10 μM test compound; THP-1 membranes; read-out: CCR2 % ctrl @ 10 μM
endpoint: remaining activity at 10 µM (%)

compound	units	readoutNumber
Cc1c(NCc2ccc(Cl)c(C(F)(F)F)c2)ncnc1C(=O)N1CCC(N2CCCCC2)CC1 [Example 142]	%	8
Cc1c(NCCc2ccc(Cl)c(Cl)c2)ncnc1C(=O)N1CCC(N2CCN(C(=O)C(C)C)CC2)CC1 [Example 284]	%	42
CNC(=O)C1CCN(C2CCN(C(=O)c3nc(C)nc(NCc4ccc(C(C)(C)C)cc4)c3C)CC2)CC1 [Example 248]	%	17
CO[C@H]1CCN(C2CCN(C(=O)c3ncnc(NCc4ccc(C(C)(C)C)cc4)c3C)CC2)C1 [Example 220]	%	27
